- TESTED SYSTEM: human ACC2 (Homo sapiens (Human), UniProt O00763)
- Sequence (O00763 129-2458): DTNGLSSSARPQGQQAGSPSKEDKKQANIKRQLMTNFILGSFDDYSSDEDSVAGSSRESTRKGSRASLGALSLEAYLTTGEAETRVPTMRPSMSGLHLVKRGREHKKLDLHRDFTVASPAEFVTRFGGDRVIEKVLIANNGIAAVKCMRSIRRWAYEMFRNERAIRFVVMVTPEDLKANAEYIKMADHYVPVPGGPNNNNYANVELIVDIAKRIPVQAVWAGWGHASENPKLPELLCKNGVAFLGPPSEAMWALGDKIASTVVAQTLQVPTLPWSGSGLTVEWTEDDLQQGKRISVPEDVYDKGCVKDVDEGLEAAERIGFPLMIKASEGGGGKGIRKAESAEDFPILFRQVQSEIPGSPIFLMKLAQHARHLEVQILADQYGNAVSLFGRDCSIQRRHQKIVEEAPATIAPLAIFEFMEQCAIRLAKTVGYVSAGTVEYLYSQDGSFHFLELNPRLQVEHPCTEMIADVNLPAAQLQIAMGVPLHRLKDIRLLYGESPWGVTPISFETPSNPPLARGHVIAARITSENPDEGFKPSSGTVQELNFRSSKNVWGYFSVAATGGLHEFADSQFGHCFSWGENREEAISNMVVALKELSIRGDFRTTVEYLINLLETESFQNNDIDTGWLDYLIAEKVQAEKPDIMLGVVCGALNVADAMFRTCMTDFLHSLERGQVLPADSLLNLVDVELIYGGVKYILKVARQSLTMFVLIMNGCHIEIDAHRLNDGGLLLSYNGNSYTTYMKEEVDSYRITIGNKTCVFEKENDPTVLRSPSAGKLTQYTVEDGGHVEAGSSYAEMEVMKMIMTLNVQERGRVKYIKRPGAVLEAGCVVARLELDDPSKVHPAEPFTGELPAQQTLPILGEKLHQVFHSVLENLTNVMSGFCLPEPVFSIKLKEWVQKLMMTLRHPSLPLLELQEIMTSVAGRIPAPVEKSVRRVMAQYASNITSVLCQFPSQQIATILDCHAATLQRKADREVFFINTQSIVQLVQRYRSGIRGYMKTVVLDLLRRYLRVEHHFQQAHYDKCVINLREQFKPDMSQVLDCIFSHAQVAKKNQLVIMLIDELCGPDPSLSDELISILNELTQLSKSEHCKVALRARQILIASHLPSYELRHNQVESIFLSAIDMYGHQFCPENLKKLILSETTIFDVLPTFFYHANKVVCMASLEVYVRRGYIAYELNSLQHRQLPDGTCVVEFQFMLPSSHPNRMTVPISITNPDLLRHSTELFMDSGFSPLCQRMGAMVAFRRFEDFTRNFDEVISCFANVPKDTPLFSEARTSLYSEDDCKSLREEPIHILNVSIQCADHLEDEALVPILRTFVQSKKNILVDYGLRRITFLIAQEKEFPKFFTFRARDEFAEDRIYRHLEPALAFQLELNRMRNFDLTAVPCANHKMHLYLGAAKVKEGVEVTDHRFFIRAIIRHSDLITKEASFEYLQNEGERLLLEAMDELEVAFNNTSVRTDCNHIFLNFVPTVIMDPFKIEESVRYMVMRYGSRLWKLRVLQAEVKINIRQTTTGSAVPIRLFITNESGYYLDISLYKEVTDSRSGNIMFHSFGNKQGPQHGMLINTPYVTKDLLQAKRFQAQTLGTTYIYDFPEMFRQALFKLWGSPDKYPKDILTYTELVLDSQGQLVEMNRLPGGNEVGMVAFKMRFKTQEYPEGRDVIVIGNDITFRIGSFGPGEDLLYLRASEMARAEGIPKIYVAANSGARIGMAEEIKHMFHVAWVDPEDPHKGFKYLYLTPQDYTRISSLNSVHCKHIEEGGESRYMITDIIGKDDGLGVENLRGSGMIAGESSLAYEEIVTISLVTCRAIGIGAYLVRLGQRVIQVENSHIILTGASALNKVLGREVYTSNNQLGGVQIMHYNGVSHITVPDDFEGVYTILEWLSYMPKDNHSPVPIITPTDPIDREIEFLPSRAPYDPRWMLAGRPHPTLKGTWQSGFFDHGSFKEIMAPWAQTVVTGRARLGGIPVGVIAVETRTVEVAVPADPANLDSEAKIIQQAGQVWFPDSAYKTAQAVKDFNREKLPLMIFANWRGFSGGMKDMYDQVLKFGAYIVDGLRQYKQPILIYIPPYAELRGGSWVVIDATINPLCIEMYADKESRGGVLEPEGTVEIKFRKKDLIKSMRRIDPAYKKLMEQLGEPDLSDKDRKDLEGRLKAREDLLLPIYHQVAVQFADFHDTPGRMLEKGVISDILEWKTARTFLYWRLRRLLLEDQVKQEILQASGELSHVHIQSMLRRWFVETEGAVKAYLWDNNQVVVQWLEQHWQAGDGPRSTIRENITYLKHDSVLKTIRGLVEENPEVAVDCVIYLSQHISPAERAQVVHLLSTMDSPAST
Please go through the items and note down their IC50.
Answer format: numeric, nM implied, no suffix.

Query block: Returns the measured IC50 for the input compound. Input: CC(=O)N[C@@H](C)c1ccc(OC2CCN(c3cc(Cl)ccc3C)C2)cc1 (stereo partly drawn) [Example 1.60]
Result block: 415

Query block: Please report the recorded IC50 for C[C@H](NC(=O)Cc1cnccn1)c1ccc(O[C@@H]2CCN(c3ccc(OCC4CC4)cc3)C2)cc1 [Example 2.3] .
Result block: 399

Query block: GET /values?readout=IC50&item= C[C@H](NC(=O)C(C)(C)C#N)c1ccc(O[C@@H]2CCN(c3ccc(OCC4CC4)cc3)C2)cc1 [Example 2.39]
Result block: 465
